tested on: AR42J rat pancreas tumor cells; assay: Antiproliferative assay on AR42J cells; type: cell-based; details: Concentration 100 nM, AR42J Rat Pancreas Tumor Cells after 8 days
Numbered stars: 1 amine (or outer) side, 2 acyl side, 3 side chain; on linkers, the order of the positions; unused ones are H or OH. Bridge positions count the residues as written; N and C are the ends. Square brackets hold non-standard residues; d marks the D form. Peptide text beside a SMILES is read from it. * marks the point of attachment. X1 = O=C1O[C@H]([C@@H](O)CO)C(OCC(=O)*)=C1OCC(O)CO; 2Nal = N[C@@H](Cc1ccc2ccccc2c1)C(=O)O; Suc = O=C(CCC(=O)[*:2])[*:1]; NHC(CH2OH)3 = OCC(CO)(CO)N*
Entries annotated with measured Cell growth (percent of control)

Summary for this compound, C[C@@H](O)[C@@H]1NC(=O)[C@H](CCCCN)NC(=O)[C@@H](Cc2c[nH]c3ccccc23)NC(=O)[C@H](Cc2ccc(O)cc2)NC(=O)[C@@H](NC(=O)[C@@H](Cc2ccccc2)NC(=O)COC2=C(OCC(O)CO)C(=O)O[C@@H]2[C@@H](O)CO)CSSC[C@@H](C(=O)N[C@@H](Cc2ccc3ccccc3c2)C(N)=O)NC1=O (stereo partly shown) [BIM-23181] (X1-[dF]CY[dW]KTC[2Nal]-NH2; disulfide 2-7) : Cell growth (percent of control) is 69.1% of control

So for C[C@@H](O)[C@@H]1NC(=O)[C@H](CCCCN)NC(=O)[C@@H](Cc2c[nH]c3ccccc23)NC(=O)[C@H](Cc2ccc(O)cc2)NC(=O)[C@@H](NC(=O)[C@@H](Cc2ccccc2)NC(=O)CCC(=O)NC(CO)(CO)CO)CSSC[C@@H](C(=O)N[C@@H](Cc2ccc3ccccc3c2)C(N)=O)NC1=O [BIM-23167] ({NHC(CH2OH)3-Suc}-[dF]CY[dW]KTC[2Nal]-NH2; disulfide 2-7) , the logged Cell growth (percent of control) turned out to be 60.2% of control

Entry `CC(C)[C@@H]1NC(=O)[C@H](CCCCN)NC(=O)[C@@H](Cc2c[nH]c3ccccc23)NC(=O)[C@H](Cc2ccc(O)cc2)NC(=O)[C@@H](NC(=O)[C@@H](Cc2ccc3ccccc3c2)NC(=O)CCCOC2=C(O)C(=O)O[C@@H]2[C@@H](O)CO)CSSC[C@@H](C(=O)N[C@H](C(N)=O)[C@@H](C)O)NC1=O` — recorded Cell growth (percent of control) = 61.0% of control

Documented Cell growth (percent of control) of C[C@H](N)C(=O)NCC(=O)N[C@H]1CSSC[C@@H](C(=O)O)NC(=O)[C@H](CO)NC(=O)[C@H]([C@@H](C)O)NC(=O)[C@H](Cc2ccccc2)NC(=O)[C@H]([C@@H](C)O)NC(=O)[C@H](CCCCN)NC(=O)[C@H](Cc2c[nH]c3ccccc23)NC(=O)[C@H](Cc2ccccc2)NC(=O)[C@H](Cc2ccccc2)NC(=O)[C@H](CC(N)=O)NC(=O)[C@H](CCCCN)NC1=O [SRIF-14, reference compound] : 91.3% of control

***
Kindly note the recorded Cell growth (percent of control) for `CC(=O)OCC(COC(C)=O)(COC(C)=O)NC(=O)CCC(=O)N[C@H](Cc1ccc2ccccc2c1)C(=O)N[C@H]1CSSC[C@@H](C(=O)N[C@H](C(N)=O)[C@@H](C)O)NC(=O)[C@H](C(C)C)NC(=O)[C@H](CCCCN)NC(=O)[C@@H](Cc2c[nH]c3ccccc23)NC(=O)[C@H](Cc2ccc(O)cc2)NC1=O` , which is 67.5% of control

Measured Cell growth (percent of control) of `CC(C)[C@@H]1NC(=O)[C@H](CCCCN)NC(=O)[C@@H](Cc2c[nH]c3ccccc23)NC(=O)[C@H](Cc2ccc(O)cc2)NC(=O)[C@@H](NC(=O)[C@@H](Cc2ccc3ccccc3c2)NC(=O)COC2=C(O)C(=O)O[C@@H]2[C@@H](O)CO)CSSC[C@@H](C(=O)N[C@H](C(N)=O)[C@@H](C)O)NC1=O` : 62.9% of control

Form field Cell growth (percent of control), entry CC[C@@H]1NC(=O)[C@H](CCCCN)NC(=O)[C@@H](Cc2c[nH]c3ccccc23)NC(=O)[C@H](Cc2ccc(O)cc2)NC(=O)[C@@H](NC(=O)[C@@H](Cc2ccccc2)NC(=O)COC2=C(OCC(O)CO)C(=O)O[C@@H]2[C@@H](O)CO)CSSC[C@@H](C(=O)N[C@H](C(N)=O)[C@@H](C)O)NC1=O (stereo partly shown) : 69.1% of control
